biological target: Potassium voltage-gated channel subfamily A member 3 (Homo sapiens, UniProt P22001); experiment: Relative T cell IC50 compared to IC50 for correolide assay; assay type: functional, cell-based
Sequence (P22001 whole entry): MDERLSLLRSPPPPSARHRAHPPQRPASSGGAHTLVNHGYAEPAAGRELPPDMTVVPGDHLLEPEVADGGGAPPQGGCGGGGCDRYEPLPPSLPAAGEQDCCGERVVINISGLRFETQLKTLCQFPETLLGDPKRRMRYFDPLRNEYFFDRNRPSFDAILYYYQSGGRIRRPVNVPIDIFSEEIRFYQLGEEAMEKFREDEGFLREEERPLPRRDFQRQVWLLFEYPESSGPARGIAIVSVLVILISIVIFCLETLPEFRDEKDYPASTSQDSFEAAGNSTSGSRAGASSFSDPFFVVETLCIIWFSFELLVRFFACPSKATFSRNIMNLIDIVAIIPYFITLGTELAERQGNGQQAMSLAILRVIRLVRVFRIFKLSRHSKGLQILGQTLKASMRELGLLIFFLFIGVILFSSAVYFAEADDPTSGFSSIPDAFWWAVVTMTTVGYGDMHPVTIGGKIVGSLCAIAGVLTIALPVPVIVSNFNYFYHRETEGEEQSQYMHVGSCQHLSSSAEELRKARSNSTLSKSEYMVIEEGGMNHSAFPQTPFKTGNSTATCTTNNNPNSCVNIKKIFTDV
EXPERIMENTAL_ENDPOINT: Ratio

Answered cases to consult:
COMPOUND	EXPERIMENTAL_ENDPOINT	OBS_VALUE
CCc1ccccc1[C@H](C)CC1(O)C(C)=C[C@@H](OC(C)=O)[C@@]2(C)C1CC[C@]1(C)C2[C@H](OC(C)=O)[C@H](OC(C)=O)[C@@]2([C@@H](C)OC(C)=O)COCC=CC12 (stereo not given in full)	Ratio	5
COc1ccccc1[C@H](C)C[C@]1(O)C(C)=C[C@@H](OC(C)=O)[C@]2(C)C3[C@H](OC(C)=O)[C@H](OC(C)=O)[C@@]4([C@@H](C)OC(C)=O)COCC=CC4[C@]3(C)CCC21 (stereo not given in full)	Ratio	7.2
CC(=O)O[C@H]1C2[C@@](C)(CCC3C(O)(CCc4ccccc4F)C(C)=C[C@@H](OC(C)=O)[C@@]32C)C2C=CCOC[C@]2([C@@H](C)OC(C)=O)[C@H]1OC(C)=O (stereo not given in full)	Ratio	0.75
COc1cccc(CCC2(O)C(C)=C[C@@H](OC(C)=O)[C@@]3(C)C2CC[C@]2(C)C3[C@H](OC(C)=O)[C@H](OC(C)=O)[C@@]3([C@@H](C)OC(C)=O)COCC=CC23)c1 (stereo not given in full)	Ratio	0.14
CC(=O)O[C@H]1C2[C@@](C)(CCC3C(O)(CCc4ccccc4C)C(C)=C[C@@H](OC(C)=O)[C@@]32C)C2C=CCOC[C@]2([C@@H](C)OC(C)=O)[C@H]1OC(C)=O (stereo not given in full)	Ratio	0.95
CC(=O)O[C@H]1C2[C@@](C)(CCC3C(O)(CCc4ccccc4)C(C)=C[C@@H](OC(C)=O)[C@@]32C)C2C=CCOC[C@]2([C@@H](C)OC(C)=O)[C@H]1OC(C)=O (stereo not given in full)	Ratio	0.4

1. CC(=O)O[C@H]1C2[C@@](C)(CCC3C(O)(C[C@H](C)c4ccccc4)C(C)=C[C@@H](OC(C)=O)[C@@]32C)C2C=CCOC[C@]2([C@@H](C)OC(C)=O)[C@H]1OC(C)=O (stereo not given in full)
2. C=C(CC1(O)C(C)=C[C@@H](OC(C)=O)[C@@]2(C)C1CC[C@]1(C)C2[C@H](OC(C)=O)[C@H](OC(C)=O)[C@@]2([C@@H](C)OC(C)=O)COCC=CC12)c1ccccc1SC (stereo not given in full)
3. CC(=O)O[C@H]1C2[C@@](C)(CCC3C(O)(CCc4ccccc4O)C(C)=C[C@@H](OC(C)=O)[C@@]32C)C2C=CCOC[C@]2([C@@H](C)OC(C)=O)[C@H]1OC(C)=O (stereo not given in full)
4. C=C(CC1(O)C(C)=C[C@@H](OC(C)=O)[C@@]2(C)C1CC[C@]1(C)C2[C@H](OC(C)=O)[C@H](OC(C)=O)[C@@]2([C@@H](C)OC(C)=O)COCC=CC12)c1ccccc1CC (stereo not given in full)
Ranking field: Ratio; order: falling. Write the labels in rank order as requested. 2, 4, 3, 1
